Data origin, for the record: ChEMBL document CHEMBL4043227

- TARGET SYSTEM: DNA topoisomerase 2-alpha (Homo sapiens)
- Sequence (P11388 whole entry, looked up, stated change not applied): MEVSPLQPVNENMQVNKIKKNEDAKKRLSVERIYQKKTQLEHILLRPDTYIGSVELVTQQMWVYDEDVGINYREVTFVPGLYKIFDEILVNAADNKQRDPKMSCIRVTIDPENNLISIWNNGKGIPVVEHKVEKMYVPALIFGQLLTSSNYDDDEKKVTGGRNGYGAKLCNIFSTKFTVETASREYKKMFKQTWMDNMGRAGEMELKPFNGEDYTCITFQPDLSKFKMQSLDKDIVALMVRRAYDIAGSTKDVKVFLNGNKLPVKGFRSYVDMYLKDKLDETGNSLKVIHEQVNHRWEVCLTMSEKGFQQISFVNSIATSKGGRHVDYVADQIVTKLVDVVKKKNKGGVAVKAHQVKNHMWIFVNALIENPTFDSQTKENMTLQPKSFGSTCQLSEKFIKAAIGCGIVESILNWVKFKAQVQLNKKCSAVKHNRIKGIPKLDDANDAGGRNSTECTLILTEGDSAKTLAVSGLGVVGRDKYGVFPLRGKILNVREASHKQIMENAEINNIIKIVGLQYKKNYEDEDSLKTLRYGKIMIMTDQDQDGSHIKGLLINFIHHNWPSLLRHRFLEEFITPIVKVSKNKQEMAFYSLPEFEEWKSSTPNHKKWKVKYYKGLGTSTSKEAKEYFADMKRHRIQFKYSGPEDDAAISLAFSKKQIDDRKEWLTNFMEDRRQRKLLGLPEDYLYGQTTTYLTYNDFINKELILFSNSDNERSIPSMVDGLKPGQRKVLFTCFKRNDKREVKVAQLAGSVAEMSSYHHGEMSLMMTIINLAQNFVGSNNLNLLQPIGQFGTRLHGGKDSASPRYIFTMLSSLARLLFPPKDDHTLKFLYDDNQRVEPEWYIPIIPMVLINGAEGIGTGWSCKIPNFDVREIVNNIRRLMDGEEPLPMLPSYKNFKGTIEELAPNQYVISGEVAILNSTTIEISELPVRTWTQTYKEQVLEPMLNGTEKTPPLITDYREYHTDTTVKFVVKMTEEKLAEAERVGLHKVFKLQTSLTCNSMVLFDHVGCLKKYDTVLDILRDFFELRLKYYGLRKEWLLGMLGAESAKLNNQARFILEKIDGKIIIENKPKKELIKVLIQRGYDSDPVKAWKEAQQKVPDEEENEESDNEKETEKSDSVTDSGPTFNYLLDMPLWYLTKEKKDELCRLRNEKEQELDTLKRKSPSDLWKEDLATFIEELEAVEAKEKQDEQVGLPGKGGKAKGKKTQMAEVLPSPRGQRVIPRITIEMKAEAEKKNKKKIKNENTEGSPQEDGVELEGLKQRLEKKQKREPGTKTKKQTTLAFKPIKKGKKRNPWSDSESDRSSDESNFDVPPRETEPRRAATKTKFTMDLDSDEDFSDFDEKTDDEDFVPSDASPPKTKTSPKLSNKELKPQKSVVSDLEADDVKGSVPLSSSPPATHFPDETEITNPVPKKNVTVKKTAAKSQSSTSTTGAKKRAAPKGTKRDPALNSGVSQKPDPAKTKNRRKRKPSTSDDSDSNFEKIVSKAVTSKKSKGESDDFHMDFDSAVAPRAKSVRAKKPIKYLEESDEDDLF
- ASSAY INFO: Inhibition of 3 nM recombinant human topoisomerase-2alpha catalytic activity expressed in Saccharomyces cerevisiae JEL1 harboring topoisomerase1 deletion mutant assessed as reduction in supercoiled pBR322 DNA relaxation after 4 mins by ethidium bromide staining based agarose gel electrophoresis
pIC50: −log10 of the molar value.
pIC50 listing for selected molecules.

# annotated cases, reported pIC50 shown
INSERT INTO results (molecule, endpoint_value) VALUES
  ('CCCCNCC(O)COc1cc(O)c2c(=O)c3ccccc3oc2c1 (stereo unspecified)', 4.00),
  ('NCCCNCCCCNCCCN', '< 3.00');

Request: Would you kindly share the measured pIC50 for `O=c1c2ccccc2oc2cc(O)cc(O)c12` ?
Result: ≤ 4.00

Request: Requested field: pIC50. Item: `NCCCCNCCCN`
Result: < 3.00

Request: Query (molecule): NCCCCNCC(O)COc1cc(O)c2c(=O)c3ccccc3oc2c1 (stereo unspecified) ; field requested: pIC50
Result: 5.30 to 5.60

Request: # get_value(readout='pIC50', item= NCCCNCC(O)COc1cc(O)c2c(=O)c3ccccc3oc2c1 (stereo unspecified) )
Result: 6.00
